All values here come from ChEMBL document CHEMBL1649062.

# test_protocol: Distribution coefficient, log D of the compound
# Assay type: physicochemical
# measurement_setup: octanol/water
property_name: logD

CN(C)C(=O)Cc1ccc(-n2nc(C(F)(F)F)c3c2CCCC3)cc1 = 2.3
CC(=O)c1ccc(-n2nc(C(F)(F)F)c3c2CCCC3)cc1 = 3
O=C1CCCN1Cc1ccc(-n2nc(C(F)(F)F)c3c2CCCC3)cc1 = 2.4
O=C(Cc1ccc(-n2nc(C(F)(F)F)c3c2CCCC3)cc1)N1CCCC1 = 3.3
CS(=O)(=O)c1ccc(-n2nc(C(F)(F)F)c3c2CCCC3)cc1 = 3.4
CN(C)S(=O)(=O)c1ccc(-n2nc(C(F)(F)F)c3c2CCCC3)cc1 = 3.1
CC(=O)Cc1ccc(-n2nc(C(F)(F)F)c3c2CCCC3)cc1 = 3
CN(C)C(=O)c1ccc(-n2nc(C(F)(F)F)c3c2CCCC3)cc1 = 3
CC(C)S(=O)(=O)NCc1ccc(-n2nc(C(F)(F)F)c3c2CCCC3)cc1 = 2.8
O=S(=O)(NCc1ccc(-n2nc(C(F)(F)F)c3c2CCCC3)cc1)C1CC1 = 3.2
